System: KM12 colon
Assay: NCI tumour cell line growth inhibition, 48 h; in the data active = GI50 below about 0.43 µM; inactive = the rest
Entry note: the call must match one of true = active, false = inactive

Solved cases below.
# COMPOUND, TARGET_OF_ASSAY, CAT
rows = [
    ("COc1ccc(C=Nc2c(C(=O)Nc3cccc(Cl)c3C)sc3nc(C)c(C(=O)/C=C/c4ccc(OC)cc4)cc23)cc1", "KM12 colon", "false"),
    ("CCN(CC)CCCC(C)Nc1ccnc2cc(Cl)ccc12 (stereo not drawn)", "KM12 colon", "false"),
    ("Cc1c(O)c(N=Nc2nc3ccccc3s2)c2ccccc2c1O", "KM12 colon", "false"),
]

Q. // return assay outcome for `Cc1ccc2oc(=O)cc(/C(=C3/C=CC=N3)c3ccc[nH]3)c2c1`
A. true

---

TGI values, listed per item
Tested on: SNB-19 CNS
Test: NCI tumour cell line growth inhibition, 48 h

Example entries and their recorded answers appear below.
# MOLECULE, ASSAY_ENDPOINT, ASSAY_RESULT
data = [
    ("CCCCCCCCCCCCOP(=O)(O)OP(=O)(O)OCC1OC(n2ccc(N)nc2=O)CC1O (stereo not drawn)", "TGI", "> 100 µM"),
    ("CCOC(=O)C1SC(=Nc2ccc(OC)c(OC)c2)N=C1C (stereo not drawn)", "TGI", "> 100 µM"),
    ("C[C@@]1(C(=O)O)CCC[C@]2(C)C1CC[C@@]13C[C@@](O)(CC[C@]12O)[C@@]1(CO1)C3 (stereo partly drawn)", "TGI", "> 100 µM"),
]

Next, consider the following molecule.
Q. Note down TGI recorded for `O=c1[nH]nc(NCc2ccccc2)c2nnn(Cc3ccccc3)c12`
A. > 100 µM

---

Test system: XF 498 CNS
Assay: NCI tumour cell line growth inhibition, 48 h
ASSAY_ENDPOINT: TGI

Look over these answered cases.
# MOLECULE, TGI
records = [
    ("COc1ccc(C2=NN(c3ccccc3)C[N+](c3ccc(C)cc3)=N2)cc1", "52.9 µM"),
    ("C=C(CO)CC(O)c1cc(OC)ccc1OC (configuration not stated)", "> 100 µM"),
    ("CN(C)CCN1C(=O)c2cccc3cc([N+](=O)[O-])cc(c23)C1=O", "2 µM"),
    ("N#CC(/C(CCC(=O)Nc1ccc(Cl)cc1)=N/NC(=O)c1cc2ccccc2cc1O)c1ccccc1 (configuration not stated)", "> 100 µM"),
    ("CCN(CC)CCCC(C)Nc1ccnc2cc(Cl)ccc12 (configuration not stated)", "32.6 µM"),
]

Q. Report measured TGI; entry is `c1ccc(-c2nc3ccccc3nc2SCc2cccnc2)cc1`
A. > 100 µM

Q. Consider the molecule `O=C(O)/C(Cl)=C(\Cl)C(=O)c1ccccc1` . State its measured TGI.
A. > 100 µM

Q. Identify measured TGI associated with CCOC(=O)C1SC(=Nc2ccc(OC)c(OC)c2)N=C1C (configuration not stated)
A. 68.8 µM

Q. Give TGI for `CCOC(=O)Cn1c2ccccc2c(=O)c2cc(C)c(C)c(C#N)c21`
A. 97.2 µM

Q. Quote TGI reported for `C=CCN1/C(=C(\C#N)c2nc3ccccc3[nH]2)Sc2c1nc[nH]c2=O` please.
A. > 100 µM

Q. Fill in TGI for record `CSCC[C@@H]1C(=O)N(C)[C@H](C(C)(C)C)N1C(=O)c1ccccc1`
A. > 100 µM

Q. Supply measured TGI of N#CC(C(=O)C(=O)Nc1ccccc1)c1ccccc1 (configuration not stated) in your reply.
A. > 100 µM

---

In this section we review reported TGI values for a set of compounds.
Tested on: OVCAR-3 ovarian
Assay: NCI tumour cell line growth inhibition, 48 h

Look over these answered cases.
# COMPOUND, ASSAY_RESULT
records = [
    ("COc1cc(-c2nc3ccc(N4CCN(C)CC4)cc3[nH]2)c(OC)c2[nH]c(COC(C)=O)nc12", "> 100 µM"),
    ("COc1cc(CSc2ccc(O)cc2)cc(OC)c1OC", "> 100 µM"),
    ("CCCCCCCCCCCC(=O)OC[C@H](C[As](=O)(O)O)OC(=O)CCCCCCCCCCC", "19.3 µM"),
    ("NC(N)=NCC1CCCCCCN1 (stereo unspecified)", "> 100 µM"),
    ("Oc1ccc(O)c(-c2cn3c(n2)SCC3)c1", "28.1 µM"),
    ("CCOC(=O)c1cc(-n2nnc3ccccc32)cn1C", "> 10 µM"),
]

Q. Give OVCAR-3 ovarian TGI for the following compound: `CCOC(=O)Cn1c2ccccc2c(=O)c2cc(C)c(C)c(C#N)c21`
A. > 100 µM

Q. Find TGI for COc1cc(C2CC(c3cccc(Nc4ccnc5cc(Cl)ccc45)c3)=NN2c2ccc(Cl)cc2)cc(OC)c1OC (stereo unspecified) on OVCAR-3 ovarian and write it down.
A. > 100 µM

Q. Name the recorded TGI of `CC(=O)Nc1cc2cc(N)ccc2oc1=O` , assay system OVCAR-3 ovarian.
A. > 100 µM

Q. Give the observed TGI of `Nc1c(C(=O)Nc2ccccc2)sc2nc3c(cc12)CCCCC3` for OVCAR-3 ovarian.
A. 2.07 µM

Q. Fetch value of TGI on OVCAR-3 ovarian for O=C1CSC(c2c[nH]c3ccccc23)N1c1ccc(Cl)cc1 (stereo unspecified) .
A. > 100 µM

---

Tested on: TK-10 renal
Assay: NCI tumour cell line growth inhibition, 48 h
ASSAY_ENDPOINT: TGI

Reference set, count: 5
# COMPOUND, ASSAY_ENDPOINT, ASSAY_RESULT
measured = [
    ("Cc1nc2c(c(N3CCCc4ccccc43)n1)CCC2", "TGI", "> 100 µM"),
    ("COc1nc2cccc(C(O)c3ccccc3)c2nc1-c1ccccc1 (stereo not given)", "TGI", "> 100 µM"),
    ("NS(=O)(=O)c1nnc(NC(=O)C23CC4CC(CC(C4)C2)C3)s1", "TGI", "> 100 µM"),
    ("CC1CCN(Cc2ccc(NC(=O)c3cc4ccc5cccnc5c4[nH]3)cc2)CC1", "TGI", "23.2 µM"),
    ("c1cc(-c2ccc(-c3ccc(-c4ccc(-c5ccncc5)o4)cc3)o2)ccn1", "TGI", "31.2 µM"),
]

Q. Using known records, supply TGI for `N#Cc1ccc(Cc2ccccn2)cc1Cl`
A. > 100 µM

Q. Hello, please tell me recorded TGI for this one: `O=c1oc2ccc(I)cc2c(=O)n1-c1ccc(F)cc1F`
A. 10.6 µM

---

GI50 by entry:
Test system: SW-620 colon
Assay: NCI tumour cell line growth inhibition, 48 h

# COMPOUND, GI50
data = [
    ("CC1=CC(C)=NN=C(N)N1S(=O)(=O)c1cc(C)c(Cl)cc1SCc1ccccc1", "24800 nM"),
    ("CCCCCCCCCCCCCCCCCc1nccn1CCOCCO", "6.19 µg/mL"),
]

Q. Return GI50 (reported value) for this compound: `CC1CCN(Cc2ccc(NC(=O)c3cc4ccc5cccnc5c4[nH]3)cc2)CC1`
A. 3400 nM

Q. Output GI50 of `COc1ccc2c(c1)c(-c1nc(-c3c[nH]c4ncccc34)cs1)cn2CCCN1CCCCC1`
A. 2000 nM

Q. Name the recorded GI50 of the item COC1C(O)CC(OC2CC(OC3CC(O[C@@H]4C(=O)c5c(cc6cc(OC7CC(OC8CC(O)C(O)C(C)O8)C(O)C(C)O7)c(C)c(O)c6c5O)CC4[C@H](OC)C(=O)O)OC(C)C3O)OC(C)C2O)OC1C (stereo partly specified) in your answer.
A. 2520 nM

Q. Fill in reported GI50 for this entry: `N#Cc1c(NCc2ccccc2)nc(NCc2ccccc2)c(C#N)c1-c1ccc(O)cc1`
A. 36100 nM

Q. Read off the recorded GI50 for `CC(=O)O[C@H]([C@H](OC(C)=O)[C@H](C)OC(C)=O)[C@@H](/C=C/[C@@H]1CC=CC(=O)O1)OC(C)=O`
A. 40000 nM

Q. Return value of GI50 for input `O=C1/C=C/[C@@H](O)[C@@H]2C[C@@H](O)C[C@H]2/C=C/CCC[C@H](CCc2cccc3ccccc23)O1` , no commentary.
A. 51.8 nM

Q. Identify measured GI50 associated with `CC/C=C\C[C@H](F)C/C=C1/C(=O)C=C[C@@H]1C/C=C\CCCC(=O)OC`
A. 1620 nM

Q. Specify reported GI50 for the compound shown: `O=C1/C(=C/c2ccccc2)CN(C(=O)C(Cl)Cl)C/C1=C\c1ccccc1`
A. 135 nM

Q. Given NC(=NCc1ccccc1)C(N=Nc1ccccc1)C(=O)NCc1ccccc1 (stereo unspecified) , respond with its GI50.
A. 1830 nM

---

Test system: HS 578T breast
Assay: NCI tumour cell line growth inhibition, 48 h; in the data active means GI50 below about 0.43 µM; inactive means the rest
Your reply should match one of these outcome classes. active, inactive

For orientation, consider the following solved cases.
# MOLECULE, CAT
measured = [
    ("CC/C=C\\C[C@H](F)C/C=C1/C(=O)C=C[C@@H]1C/C=C\\CCCC(=O)OC", "inactive"),
    ("COc1ccc2c3c(Nc4cccc(/C(C)=N\\O)c4)[nH]c4ccccc4c-3c(N=O)c2c1", "inactive"),
    ("O=C1C(Cl)=C(Nc2ccc(Nc3ccccc3)c(NC3=C(Cl)C(=O)c4ccccc4C3=O)c2)C(=O)c2ccccc21", "inactive"),
    ("Cc1nc2c(c(N3CCCc4ccccc43)n1)CCC2", "active"),
]

Q. Could you check what this test reported for COC1C(O)CC(OC2CC(OC3CC(O[C@@H]4C(=O)c5c(cc6cc(OC7CC(OC8CC(O)C(O)C(C)O8)C(O)C(C)O7)c(C)c(O)c6c5O)CC4[C@H](OC)C(=O)O)OC(C)C3O)OC(C)C2O)OC1C (stereo not given in full) ?
A. inactive

Q. Recorded test outcome, item `COc1ccc(/C=C2\CN(C(=O)C(Cl)Cl)C/C(=C\c3ccc(OC)cc3)C2=O)cc1`
A. inactive

Q. Recorded test outcome, item `COC(=O)c1ccc2c(c1)C(=O)c1c-2n(CCCCl)c(=O)c2cc([N+](=O)[O-])ccc12`
A. inactive

Q. Returns: the outcome recorded for `CN(C)CCCN(CCC1CCCCC1)CCC1CCCCC1` in this assay.
A. inactive

Q. Just curious, what result did `Cc1c(-c2ccc(C3CCCCC3)cc2)nc2ccc(F)cc2c1C(=O)O` get here?
A. inactive

Q. Just curious, what result did `O=C(CCl)NCCNc1nccc(Nc2ccc(S(=O)(=O)Nc3ccccn3)cc2)n1` get here?
A. inactive

Measured values drawn from PubChem BioAssay (NCI) for this set.
